Target Desc: ACE2 (Homo sapiens), Q9BYF1
Sequence (Q9BYF1 18-740): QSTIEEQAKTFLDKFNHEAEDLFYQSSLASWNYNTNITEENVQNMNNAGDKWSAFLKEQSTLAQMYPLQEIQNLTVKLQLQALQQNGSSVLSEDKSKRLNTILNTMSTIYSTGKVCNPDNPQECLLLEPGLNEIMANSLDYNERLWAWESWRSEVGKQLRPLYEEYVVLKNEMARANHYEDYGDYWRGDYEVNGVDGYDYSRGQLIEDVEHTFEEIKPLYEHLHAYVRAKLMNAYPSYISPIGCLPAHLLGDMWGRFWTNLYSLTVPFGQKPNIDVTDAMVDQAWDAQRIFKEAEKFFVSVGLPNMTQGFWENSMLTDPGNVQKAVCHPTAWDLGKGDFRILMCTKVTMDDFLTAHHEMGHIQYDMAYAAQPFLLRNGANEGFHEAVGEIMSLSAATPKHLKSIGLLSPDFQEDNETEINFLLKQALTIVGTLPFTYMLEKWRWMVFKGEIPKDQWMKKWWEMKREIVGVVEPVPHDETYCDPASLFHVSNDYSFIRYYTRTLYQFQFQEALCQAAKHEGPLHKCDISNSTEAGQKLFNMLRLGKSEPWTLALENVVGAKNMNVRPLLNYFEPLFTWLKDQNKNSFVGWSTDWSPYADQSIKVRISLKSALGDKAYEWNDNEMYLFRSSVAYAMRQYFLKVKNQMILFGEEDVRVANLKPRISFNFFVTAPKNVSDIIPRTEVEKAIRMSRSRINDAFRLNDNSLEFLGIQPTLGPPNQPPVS
Method Description: SPR
Experimental Context: modification not given
Metric Name: Kd

The binder listed as TTGIGYQPYRVV [RBD-15 peptide, P59594] shows Kd equal to 672 µM
